Listed here are sequences together with their documented cleaved RNA product abundance.
tested on: Bacillus subtilis; assay: cleaved RNA product abundance (RNA/gDNA barcode ratio) relative to median wild-type variant (ratio to wild type); higher = more accumulation of the downstream cleavage product; details: experiment (reporter, strain, medium): exp 2b: truncated aprE reporter, strain BJT200; cleavage site: cggR-gapA (positions -7 to +36 mutated)

{"chain sequence": "ACAGACGAAGGAGCCGCAAAGAAGTTATTAAGACATGAATAATCCCTCAATATAAATATCTCTCACTTATTTAAA", "cleaved RNA product abundance": 0.111}
{"chain sequence": "ACAGACGAAGGAGCCGCAAAGAAGTTAATAAGGGATGAATAATCCCTCAATACAAATATCTCTCACTTATTTAAA", "cleaved RNA product abundance": 0.0847}
{"chain sequence": "ACAGACGAAGGAGCCGCAAAGAAGTTATTAAGGGACTAATAATCCCTCAATATAAATATCTCTCACTTATTTAAA", "cleaved RNA product abundance": 1.03}
{"chain sequence": "ACAGACGAAGGAGCCGCAAAGAAATTATTAAGGGATGAATAATCCCACAATATAAATATCTCTCACTTATTTAAA", "cleaved RNA product abundance": 0.195}

###

tested on: Bacillus subtilis; experiment: cleaved RNA product abundance (RNA/gDNA barcode ratio) relative to median wild-type variant (ratio to wild type); higher = more accumulation of the downstream cleavage product; details: experiment (reporter, strain, medium): exp 4a: truncated aprE reporter, strain BJT201 with 2% xylose (RNase J1 expressed); cleavage site: cggR-gapA (positions -7 to +36 mutated)

{"chain sequence": "ACAGACGAAGGAGCCGCAACGAAGTTATTAACGGATGAATAATCCCTCAATATAAATATCTCTCACTTATTTAAA", "target desc": "Bacillus subtilis", "cleaved RNA product abundance": 0.155}
{"chain sequence": "ACAGACGAAGGAGCCGCAAAGAAGTTTTTAAGGAATGAATAATCCCTCAATATAAATATCTCTCACTTATTTAAA", "target desc": "Bacillus subtilis", "cleaved RNA product abundance": 0.163}
{"chain sequence": "ACAGACGAAGGAGCCGCAAAAAAGTTATTAAGGGATGAATAATCCCTGAATATAAATATCTCTCACTTATTTAAA", "target desc": "Bacillus subtilis", "cleaved RNA product abundance": 0.427}
{"chain sequence": "ACAGACGAAGGAGCCGCAAAGAAGTTATTAAGGAATGAATAGTCCCTCAATATAAATATCTCTCACTTATTTAAA", "target desc": "Bacillus subtilis", "cleaved RNA product abundance": 0.114}
{"chain sequence": "ACAGACGAAGGAGCCGCAAAGAAGTTATTAAGGAATGAATTATCCCTCAATATAAATATCTCTCACTTATTTAAA", "target desc": "Bacillus subtilis", "cleaved RNA product abundance": 0.0807}
{"chain sequence": "ACAGACGAAGGAGCCGCAAAGAAGTTATTAAGGGATGAATAATACCTCTATATAAATATCTCTCACTTATTTAAA", "target desc": "Bacillus subtilis", "cleaved RNA product abundance": 0.156}
{"chain sequence": "ACAGACGAAGGAGCCGCAAAGTAGTTATTAAGGGATTAATAATCCCTCAATATAAATATCTCTCACTTATTTAAA", "target desc": "Bacillus subtilis", "cleaved RNA product abundance": 1.14}
{"chain sequence": "ACAGACGAAGGAGCCGCAAAGAAGTCATTAACGGATGAATAATCCCTCAATATAAATATCTCTCACTTATTTAAA", "target desc": "Bacillus subtilis", "cleaved RNA product abundance": 0.128}
{"chain sequence": "ACAGACGAAGGAGCCGCAAAGAAGTTACTAAGGGATCAATAATCCCTCAATATAAATATCTCTCACTTATTTAAA", "target desc": "Bacillus subtilis", "cleaved RNA product abundance": 0.208}
{"chain sequence": "ACAGACGAAGGAGCCGCAAAAAAGTTATTAAGTGATGAATAATCCCTCAATATAAATATCTCTCACTTATTTAAA", "target desc": "Bacillus subtilis", "cleaved RNA product abundance": 0.0972}
{"chain sequence": "ACAGACGAAGGAGCCGCAAATAAGTTATTAAGGCATGAATAATCCCTCAATATAAATATCTCTCACTTATTTAAA", "target desc": "Bacillus subtilis", "cleaved RNA product abundance": 0.0954}
{"chain sequence": "ACAGACGAAGGAGCCGCAAAGAAGTTAGTAAGGGAAGAATAATCCCTCAATATAAATATCTCTCACTTATTTAAA", "target desc": "Bacillus subtilis", "cleaved RNA product abundance": 0.302}
{"chain sequence": "ACAGACGAAGGAGCCGCTAAGAAGTTATTAAGGGATGAATAATCCCTCTATATAAATATCTCTCACTTATTTAAA", "target desc": "Bacillus subtilis", "cleaved RNA product abundance": 0.509}
{"chain sequence": "ACAGACGAAGGAGCCGCAAAGAAGTTATTAAGAGATGAATAATCCCGCAATATAAATATCTCTCACTTATTTAAA", "target desc": "Bacillus subtilis", "cleaved RNA product abundance": 0.154}
{"chain sequence": "ACAGACGAAGGAGCCGCAAAGAAGTTATTAAGGGATGAATAATCCATCAATATACATATCTCTCACTTATTTAAA", "target desc": "Bacillus subtilis", "cleaved RNA product abundance": 0.296}
{"chain sequence": "ACAGACGAAGGAGCCGCAAAGAAGTTATTAAGGGATGAATAATCACTGAATATAAATATCTCTCACTTATTTAAA", "target desc": "Bacillus subtilis", "cleaved RNA product abundance": 0.0697}
{"chain sequence": "ACAGACGAAGGAGCCGCAAAGATGTTATTAAGGCATGAATAATCCCTCAATATAAATATCTCTCACTTATTTAAA", "target desc": "Bacillus subtilis", "cleaved RNA product abundance": 0.104}
{"chain sequence": "ACAGACGAAGGAGCCGCAAAGAAGTTATTAGGGGATGAATAATCCTTCAATATAAATATCTCTCACTTATTTAAA", "target desc": "Bacillus subtilis", "cleaved RNA product abundance": 0.636}
{"chain sequence": "ACAGACGAAGGAGCCGCAAAGAAGTTATTGAGGGCTGAATAATCCCTCAATATAAATATCTCTCACTTATTTAAA", "target desc": "Bacillus subtilis", "cleaved RNA product abundance": 0.167}
{"chain sequence": "ACAGACGAAGGAGCCGCAAAGAAGTTAATAAAGGATGAATAATCCCTCAATATAAATATCTCTCACTTATTTAAA", "target desc": "Bacillus subtilis", "cleaved RNA product abundance": 0.215}
{"chain sequence": "ACAGACGAAGGAGCCGCAAAGAAGTTATTAAGGTATGAAAAATCCCTCAATATAAATATCTCTCACTTATTTAAA", "target desc": "Bacillus subtilis", "cleaved RNA product abundance": 0.145}
{"chain sequence": "ACAGACGAAGGAGCCGCAAAGATGTTATTAAGGGATGAATAATCCCTCAATATAAATAACTCTCACTTATTTAAA", "target desc": "Bacillus subtilis", "cleaved RNA product abundance": 0.897}
{"chain sequence": "ACAGACGAAGGAGCCGCAAAGAAGTTAAAAAGGGATGAATAATCCCTCAATATAAATATCTCTCACTTATTTAAA", "target desc": "Bacillus subtilis", "cleaved RNA product abundance": 0.392}
{"chain sequence": "ACAGACGAAGGAGCCGCAAAGAAGTTAATAAGGGATGAATAATCTCTCAATATAAATATCTCTCACTTATTTAAA", "target desc": "Bacillus subtilis", "cleaved RNA product abundance": 0.292}
{"chain sequence": "ACAGACGAAGGAGCCGCAAAGAAGTTATTAAGTTATGAATAATCCCTCAATATAAATAACTCTCACTTATTTAAA", "target desc": "Bacillus subtilis", "cleaved RNA product abundance": 0.117}
{"chain sequence": "ACAGACGAAGGAGCCGCAAAGAAGTTATTAAGGTATGAATAATCCCTCAATAAAAATATCTCTCACTTATTTAAA", "target desc": "Bacillus subtilis", "cleaved RNA product abundance": 0.0613}
{"chain sequence": "ACAGACGAAGGAGCCGCAAAGAAGTTATTAAGGAATGAATAATCCCTCAATTTAAATATCTCTCACTTATTTAAA", "target desc": "Bacillus subtilis", "cleaved RNA product abundance": 0.0591}
{"chain sequence": "ACAGACGAAGGAGCCGCAAAGAAGTTATTAAGGTATGAATAATCCCTTAATATAAATATCTCTCACTTATTTAAA", "target desc": "Bacillus subtilis", "cleaved RNA product abundance": 0.461}
{"chain sequence": "ACAGACGAAGGAGCCGCAAAGAAGTTATTAAGGGATGAAAAATCGCTCAATATAAATATCTCTCACTTATTTAAA", "target desc": "Bacillus subtilis", "cleaved RNA product abundance": 0.0823}
{"chain sequence": "ACAGACGAAGGAGCCGCAACGAAATTATTAAGGGATGAATAATCCCTCAATATAAATATCTCTCACTTATTTAAA", "target desc": "Bacillus subtilis", "cleaved RNA product abundance": 1.03}

// data source = the supplement of paper PMC11780869
